- Tested on: CP247
- method: qHTS profiling for inhibitors of Plasmodium falciparum proliferation (AID 504749); note: nearly all actives have a fitted effect of over 60% in size
- protocol.conditions: P. falciparum in erythrocytes, SYBR Green DNA, 72 h; series mostly up to 28.7 µM
Records with an inconclusive call do not appear. Active and inactive are the calls of the source. Calls come from the whole dose curve; as a rule, active = well fitted inhibition curve with a large enough effect; inconclusive = small, poorly fitted or top-dose-only effect; inactive = flat fitted curve, though single readings scatter.
// one of 1 = active, -1 = inactive, no free text

Example cases with answers are listed next.
CC(C)(C)C(=O)Oc1ccc(S(=O)(=O)Nc2ccccc2C(=O)NCC(=O)O)cc1: -1
CNCCCC12CCC(c3ccccc31)c1ccccc12: -1
Cc1cnc(C(=O)NCCc2ccc(S(=O)(=O)NC(=O)NC3CCCCC3)cc2)cn1: -1
CCC1(c2ccccc2)C(=O)NCNC1=O: -1
CN(C)c1nc(N(C)C)nc(N(C)C)n1: -1
O=C1N(c2ccccc2)c2ccccc2C1(Cc1ccncc1)Cc1ccncc1: -1
CS(=O)(=O)CCNCc1ccc(-c2ccc3ncnc(Nc4ccc(OCc5cccc(F)c5)c(Cl)c4)c3c2)o1: -1
NCCCCCC(=O)O: -1
CC(CCc1ccc(O)cc1)NCCc1ccc(O)c(O)c1 (centres undefined): -1
Nc1nnc(-c2cccc(Cl)c2Cl)c(N)n1: -1

For this compound, state the assay outcome: Nc1nc2c(ncn2COC(CO)CO)c(=O)[nH]1 -1

For this compound, state the assay outcome: O=c1c(O)c(-c2ccc(O)c(O)c2)oc2cc(O)cc(O)c12 1

For this compound, state the assay outcome: COc1ccccc1OCC(O)CN1CCN(CC(=O)Nc2c(C)cccc2C)CC1 (centres undefined) -1

For this compound, state the assay outcome: CN1CCN2c3ccccc3Cc3ccccc3C2C1 (centres undefined) -1
